Data provenance is patent US20040063764A1.

Biological target: human TPO receptor (Homo sapiens, UniProt P40238)
Construct: expressed in transfected cells; host or cells: BaF-B03 (murine IL-3 dependent pro-B cell line); the resulting line is BaF/hTPOR
Sequence (P40238 26-635): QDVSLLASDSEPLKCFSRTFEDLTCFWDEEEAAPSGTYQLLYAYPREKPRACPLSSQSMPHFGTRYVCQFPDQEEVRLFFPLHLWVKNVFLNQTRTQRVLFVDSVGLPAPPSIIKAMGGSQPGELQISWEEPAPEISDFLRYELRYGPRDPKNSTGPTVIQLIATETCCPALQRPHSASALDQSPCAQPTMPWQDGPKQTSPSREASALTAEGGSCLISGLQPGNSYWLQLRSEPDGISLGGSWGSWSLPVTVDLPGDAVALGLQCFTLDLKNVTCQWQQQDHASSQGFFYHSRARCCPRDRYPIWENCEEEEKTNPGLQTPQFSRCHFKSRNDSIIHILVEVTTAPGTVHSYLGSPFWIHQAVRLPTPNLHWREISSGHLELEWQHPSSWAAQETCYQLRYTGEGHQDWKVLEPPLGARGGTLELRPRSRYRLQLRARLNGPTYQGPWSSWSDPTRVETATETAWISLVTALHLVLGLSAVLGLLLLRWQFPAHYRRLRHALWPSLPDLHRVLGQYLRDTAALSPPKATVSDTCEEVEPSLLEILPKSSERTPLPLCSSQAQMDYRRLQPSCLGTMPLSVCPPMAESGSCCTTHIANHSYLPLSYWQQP
Assay: Thrombopoietic activity: proliferation of TPO dependent BaF/hTPOR cell line (WST-1)
Assay type: cell-based
Details: BaF/hTPOR cells, 20 hours incubation then WST-1 for 4 hours, absorbance at 450 nm; ED50 = half concentration of the concentration showing the maximum thrombopoietic activity
pEC50: −log10 of the molar value.
metric-name: pEC50

molecule: O=C1NC(=O)/C(=C/c2ccc(C(=O)Nc3nc(-c4cccc(-c5ccccc5)c4F)cs3)cc2)S1 [Compound A-13]
metric-name: pEC50
measured: 7.60
--
molecule: CC(C)(C)CCc1cccc(-c2csc(NC(=O)c3ccc(/C=C4\SC(=O)NC4=O)cc3)n2)c1F [Compound A-32]
metric-name: pEC50
measured: 8.05
--
molecule: O=C1NC(=S)S/C1=C\c1ccc(C(=O)Nc2nc(-c3cccc(C(F)(F)F)c3F)cs2)cc1 [Compound A-1]
metric-name: pEC50
measured: 8.10

[I] CCOC(=O)CCCCc1cccc(-c2csc(NC(=O)c3ccc(/C=C4\SC(=O)NC4=O)cc3)n2)c1F [Compound A-44]
[II] O=C1NC(=O)/C(=C/c2ccc(C(=O)Nc3nc(-c4ccc(-c5ccccc5)cc4F)cs3)cc2)S1 [Compound A-8]
Recorded pEC50 values differ for I and II ; which one is higher? Field: selected label. Fill in the label of the entry you choose. I

[I] O=C1NC(=O)/C(=C/c2ccc(C(=O)Nc3nc(-c4cccc(F)c4F)cs3)cc2)S1 [Compound A-5]
[II] COCCOCCc1cccc(-c2csc(NC(=O)c3ccc(/C=C4\SC(=O)NC4=O)cc3)n2)c1F [Compound A-43]
Quick one: lower pEC50, I or II ? Field: selected label. Fill in the label of the entry you choose. II
